Tested on: MDA-MB-468
testProtocol: Antiproliferative activity against human MDA-MB-468 cells assessed as cell viability at 10 uM incubated for 48 hrs by MTT assay relative to control
Format: functional
conditionInfo: MDA-MB-468, 48 h, read-out: Activity
Please note: viability at 10 µM exactly at 50% is Criterion not met. Only values below 50% get Criterion met.

Below are worked cases with known answers.
[
  {
    "recordSmiles": "CCN(CC)CCCOc1ccc(Nc2nccc(-n3cccc3)n2)cc1",
    "targetOrTestSystem": "MDA-MB-468",
    "qualitativeLabel": "Criterion not met"
  },
  {
    "recordSmiles": "COCCCOc1ccc(Nc2nccc(N3CCC(Cl)CC3)n2)cc1",
    "targetOrTestSystem": "MDA-MB-468",
    "qualitativeLabel": "Criterion not met"
  },
  {
    "recordSmiles": "c1ccc2c(c1)ccn2-c1ccnc(Nc2ccc(OCCCN3CCCCC3)cc2)n1",
    "targetOrTestSystem": "MDA-MB-468",
    "qualitativeLabel": "Criterion met"
  },
  {
    "recordSmiles": "c1ccc2c(c1)ccn2-c1ccnc(Nc2ccc(OCCCN3CCOCC3)cc2)n1",
    "targetOrTestSystem": "MDA-MB-468",
    "qualitativeLabel": "Criterion met"
  },
  {
    "recordSmiles": "COCCCOc1ccc(Nc2nccc(N3CCC(C)CC3)n2)cc1",
    "targetOrTestSystem": "MDA-MB-468",
    "qualitativeLabel": "Criterion not met"
  }
]

Then there is this compound:
is_below(viability at 10 µM, 50%) for c1ccn(-c2ccnc(Nc3ccc(OCCCN4CCCCC4)cc3)n2)c1 ?
Criterion not met
